The measurements presented in this section are drawn from patent US10118947B2.

# Test method notes: Plasma stability profiling Method #1 (MALDI-TOF, 35% plasma), rat plasma
# Type: in vitro ADME
# Recorded conditions: Table 21; method #1
Numbered stars: 1 amine (or outer) side, 2 acyl side, 3 side chain; on linkers, the order of the positions; unused ones are H or OH. Bridge positions count the residues as written; N and C are the ends. Peptide text beside a SMILES is read from it. TBMB = c1c(C[*:1])cc(C[*:3])cc1C[*:2]
Measured endpoint: Observable in rat plasma, for days (days)
Answers are plain numbers, in days.

Entry CC(=O)N[C@H]1CSCc2cc3cc(c2)CSC[C@H](NC(=O)[C@H](CCCNC(=N)N)NC(=O)[C@H](Cc2ccc(O)cc2)NC(=O)[C@@H]2CCCN2C(=O)[C@H](Cc2ccccc2)NC(=O)[C@H](CO)NC1=O)C(=O)N[C@@H](CC(C)C)C(=O)N[C@@H](Cc1c[nH]cn1)C(=O)N[C@@H](CCC(N)=O)C(=O)N[C@@H](CC(=O)O)C(=O)N[C@@H](CC(C)C)C(=O)N[C@H](C(N)=O)CSC3 [Ac-(06-34-18) Phe2 Tyr4] (Ac-CSFPYRCLHQDLC-NH2; linker 1-7-13 via TBMB) : reported Observable in rat plasma, for days = ? 2

###

# Assay target: rat plasma Kallikrein (Rattus norvegicus, UniProt P14272)
# Construct: polyhistidine tag (N, cleaved yes); proTEV cleavage site (pro-peptide linker) (N, cleaved yes); made in house; host or cells: HEK-293 (suspension-adapted)
# Sequence (P14272 391-638 limits assumed): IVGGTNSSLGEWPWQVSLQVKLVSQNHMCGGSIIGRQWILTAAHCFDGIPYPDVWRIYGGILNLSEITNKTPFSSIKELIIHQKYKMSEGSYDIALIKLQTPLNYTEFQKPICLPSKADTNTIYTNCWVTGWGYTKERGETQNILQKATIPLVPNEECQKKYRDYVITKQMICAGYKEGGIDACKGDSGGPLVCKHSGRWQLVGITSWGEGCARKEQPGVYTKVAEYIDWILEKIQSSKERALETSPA
# Test method notes: Functional enzyme inhibition assay with fluorogenic substrate Z-PheArg-AMC, rat plasma Kallikrein
# Assay type: biochemical
# Recorded conditions: Table 26b, loop 1 and loop 2 modified derivatives
Numbered stars: 1 amine (or outer) side, 2 acyl side, 3 side chain; on linkers, the order of the positions; unused ones are H or OH. Bridge positions count the residues as written; N and C are the ends. Square brackets hold non-standard residues; d marks the D form. Peptide text beside a SMILES is read from it. TBMB = c1c(C[*:1])cc(C[*:3])cc1C[*:2]; hArg = N=C(N)NCCCC[C@H](N)C(=O)O; Phg = N[C@H](C(=O)O)c1ccccc1; Aze = O=C(O)[C@@H]1CCN1
Measured endpoint: Ki (nM)
Answers are plain numbers, in nM.

Entry CC(=O)N[C@H]1CSCc2cc3cc(c2)CSC[C@H](NC(=O)[C@H](CCCCNC(=N)N)NC(=O)[C@H](C)NC(=O)[C@@H]2CCN2C(=O)[C@H](Cc2c[nH]c4ccccc24)NC(=O)[C@H](CO)NC1=O)C(=O)N[C@@H](c1ccccc1)C(=O)N[C@@H](Cc1c[nH]cn1)C(=O)N[C@@H](CCC(N)=O)C(=O)N[C@@H](CC(=O)O)C(=O)N[C@@H](CC(C)C)C(=O)N[C@H](C(N)=O)CSC3 [Ac-(06-34-18) Aze3 HArg5 Phg6] (Ac-CSW[Aze]A[hArg]C[Phg]HQDLC-NH2; linker 1-7-13 via TBMB) : reported Ki = ? 57

###

I'd be grateful if you could share measured Ki for these entries.
# Assay target: rat plasma Kallikrein (Rattus norvegicus)
# Construct: polyhistidine tag (N, cleaved yes); proTEV cleavage site (pro-peptide linker) (N, cleaved yes); made in house; host or cells: HEK-293 (suspension-adapted)
# Test method notes: Functional enzyme inhibition assay with fluorogenic substrate Z-PheArg-AMC, rat plasma Kallikrein
# Format: biochemical
# Recorded conditions: Table 26b, loop 1 and loop 2 modified derivatives
Numbered stars: 1 amine (or outer) side, 2 acyl side, 3 side chain; on linkers, the order of the positions; unused ones are H or OH. Bridge positions count the residues as written; N and C are the ends. Square brackets hold non-standard residues; d marks the D form. Peptide text beside a SMILES is read from it. TBMB = c1c(C[*:1])cc(C[*:3])cc1C[*:2]; hArg = N=C(N)NCCCC[C@H](N)C(=O)O; Phg = N[C@H](C(=O)O)c1ccccc1; Aze = O=C(O)[C@@H]1CCN1
Numbers only, in nM.

| Molecule | Assay target | Ki [nM] |
| --- | --- | --- |
| CC(=O)N[C@H]1CSCc2cc3cc(c2)CSC[C@H](NC(=O)[C@H](CCCCNC(=N)N)NC(=O)[C@H](Cc2ccc(O)cc2)NC(=O)[C@@H]2CCN2C(=O)[C@H](Cc2ccccc2)NC(=O)[C@H](CO)NC1=O)C(=O)N[C@@H](CC(C)C)C(=O)N[C@@H](Cc1c[nH]cn1)C(=O)N[C@@H](CCC(N)=O)C(=O)N[C@H](CC(=O)O)C(=O)N[C@@H](CC(C)C)C(=O)N[C@H](C(N)=O)CSC3 (Ac-CSF[Aze]Y[hArg]CLHQ[dD]LC-NH2; linker 1-7-13 via TBMB) | rat plasma Kallikrein (Rattus norvegicus) | 14 |

Entry CC(=O)N[C@H]1CSCc2cc3cc(c2)CSC[C@H](NC(=O)[C@H](CCCCNC(=N)N)NC(=O)[C@H](Cc2ccc(O)cc2)NC(=O)[C@@H]2CCN2C(=O)[C@H](Cc2ccccc2)NC(=O)[C@H](CO)NC1=O)C(=O)N[C@@H](c1ccccc1)C(=O)N[C@@H](Cc1c[nH]cn1)C(=O)N[C@@H](CCC(N)=O)C(=O)N[C@@H](CC(=O)O)C(=O)N[C@@H](CC(C)C)C(=O)N[C@H](C(N)=O)CSC3 [Ac-(06-34-18) Phe2 Aze3 Tyr4 HArg5 Phg6] (Ac-CSF[Aze]Y[hArg]C[Phg]HQDLC-NH2; linker 1-7-13 via TBMB) : reported Ki = ? 12
